molecular target: Nonstructural protein 3 (Zika virus, UniProt A0A024AXB9); test: Functional biochemical assay to identify treatments for viral infectious disease that targets Zika NS2B-NS3 protease. Utilizing a direct enzyme activity measurement method, reading the fluorescence intensity is used to characterize the relative potency of inhibitors as IC50.; set-up: species or system PRVABC59
Sequence (A0A024AXB9 whole entry): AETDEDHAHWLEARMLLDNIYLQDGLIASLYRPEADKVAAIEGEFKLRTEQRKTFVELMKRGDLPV
pIC50: −log10 of the molar value.
Listed next: entries and their corresponding pIC50.
property_name: pIC50

[[record]]
compound = "COCCc1ccnc(NC(=O)c2cc(C3CC3)n(C)c2C)c1"
measured_on = "Nonstructural protein 3 (Zika virus, UniProt A0A024AXB9)"
recorded_result = "< 4.60"

[[record]]
compound = "O=C(O)c1cc(Cl)ccc1S(=O)(=O)NC1CCC(N2CCCCC2=O)CC1 (stereo not given)"
measured_on = "Nonstructural protein 3 (Zika virus, UniProt A0A024AXB9)"
recorded_result = "< 4.00"

[[record]]
compound = "CCn1ccnc(N2CC[C@H](c3cccnc3)C2)c1=O"
measured_on = "Nonstructural protein 3 (Zika virus, UniProt A0A024AXB9)"
recorded_result = "< 4.00"

[[record]]
compound = "NCc1ccc(C(=O)O)c(NC(=O)c2cc(Cl)cc(NC(=O)OCc3ccccc3)c2)c1"
measured_on = "Nonstructural protein 3 (Zika virus, UniProt A0A024AXB9)"
recorded_result = "< 4.00"

[[record]]
compound = "C=CC[C@H]1NCc2cc(NC(=O)c3ccc4c(c3)CC(=O)N4)ccc21"
measured_on = "Nonstructural protein 3 (Zika virus, UniProt A0A024AXB9)"
recorded_result = "< 4.60"

